EXPERIMENTAL PROTOCOL: Prodrug in vivo pharmacokinetics in dogs after intravenous administration (LC-MS-MS of prodrug and parent)
PROTOCOL CONDITIONS: beagle, dog, in vivo, iv, 0.7 mg/kg, Vdss, Example 31 in plasma, IV Example 31 at 0.7 mg/kg, Dog 01
METRIC: Vd

* O=C(O[C@H](COP(=O)([O-])[O-])C(F)(F)F)N1CCC2(CC1)C[C@@H](NS(=O)(=O)c1ccccc1)CO2.[Na+].[Na+] | 0.235 L/kg

----------
Form field: log10(IC50) (one value per entry).
EXPERIMENTAL TARGET: human recombinant Monoacylglycerol Lipase (Homo sapiens)
EXPERIMENTAL PROTOCOL: MAGL inhibition enzymatic assay, fluorogenic substrate 7-HCA, IC50 at T=0 min or after 30 minute incubation (T=30 min)
Type: biochemical
PROTOCOL CONDITIONS: T = 30 min (30 minute incubation); geometric mean of 2-4 determinations unless otherwise indicated; read-out: MAGL (T = 30 min) IC50
METRIC: log10(IC50) (log10 of the value in nM)

• CN(C1COC2(CCN(C(=O)O[C@H](CO)C(F)(F)F)CC2)C1)S(=O)(=O)c1ccc(F)cc1 (single isomer, unassigned) [Example 110] = 0.78
• O=C(O[C@H](CO)C(F)(F)F)N1C[C@@H]2[C@H](C1)[C@H]2c1ccn(Cc2ccccn2)n1 [Example 37] = 1.43
• C#Cc1cccc(S(=O)(=O)N2CCOC3(CCN(C(=O)O[C@H](CO)C(F)(F)F)CC3)C2)c1 [Example 79] = 0.00
• CCc1cccc(S(=O)(=O)N2CCOC3(CCN(C(=O)O[C@H](CO)C(F)(F)F)CC3)C2)c1 [Example 77] = 0.00
• O=C(OC(CO)C(F)(F)F)N1CCC(c2ccnc(N3CCOCC3)n2)CC1 (stereo not shown) [Example 35] = 1.51
• CN(C1COC2(CCN(C(=O)O[C@H](CO)C(F)(F)F)CC2)C1)S(=O)(=O)C1CCCC1 (mixture of isomers) [Example 112] = 0.85

----------
EXPERIMENTAL TARGET: human recombinant Monoacylglycerol Lipase (Homo sapiens)
Sequence (Q99685 1-303): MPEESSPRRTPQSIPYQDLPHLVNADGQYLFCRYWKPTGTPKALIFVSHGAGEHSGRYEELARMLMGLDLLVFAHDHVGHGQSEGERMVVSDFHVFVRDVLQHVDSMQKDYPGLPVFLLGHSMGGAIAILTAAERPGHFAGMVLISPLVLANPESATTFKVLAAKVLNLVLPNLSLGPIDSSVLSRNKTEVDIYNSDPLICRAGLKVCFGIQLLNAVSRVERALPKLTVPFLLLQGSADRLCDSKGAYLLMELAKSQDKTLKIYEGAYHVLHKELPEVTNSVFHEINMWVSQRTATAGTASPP
EXPERIMENTAL PROTOCOL: MAGL inhibition enzymatic assay, fluorogenic substrate 7-HCA, IC50 at T=0 min or after 30 minute incubation (T=30 min)
Format: biochemical
PROTOCOL CONDITIONS: T = 0 min (substrate added immediately); geometric mean of 2-4 determinations unless otherwise indicated; read-out: MAGL (T = 0 min) IC50
METRIC: IC50 (µM)

* CN(C1COC2(CCN(C(=O)O[C@H](CO)C(F)(F)F)CC2)C1)S(=O)(=O)C1CCC1 (mixture of isomers) [Example 113] | 0.139
* O=C(O[C@H](CO)C(F)(F)F)N1CCC2(CC1)CN(S(=O)(=O)NCc1ccccn1)CCO2 [Example 74] | 0.392
* O=C(O[C@H](CO)C(F)(F)F)N1CCC2(CC1)CC(N1CCc3ccccc3S1(=O)=O)CO2 (mixture of isomers) [Example 131] | 0.086
* O=C1COC2(CCN(C(=O)O[C@H](CO)C(F)(F)F)CC2)CN1Cc1ccc(F)cc1 [Example 17] | 0.951
* O=C(O[C@H](CO)C(F)(F)F)N1CCC(O)(CN(Cc2ccc(F)cc2)C2CCOCC2)CC1 [Example 46] | 0.56
* CC(C)Oc1ccc(S(=O)(=O)N2CCOC3(CCN(C(=O)O[C@H](CO)C(F)(F)F)CC3)C2)cc1 [Example 78] | 0.006
* O=C(O)C(F)(F)F.O=C(O[C@H](CO)C(F)(F)F)N1CCC2(CC1)CC(c1ccc(F)cn1)CO2 (mixture of isomers) [Example 97, trifluoroacetate salt] | 0.192
* O=C(OC(C(F)(F)F)C(F)(F)CO)N1CCC2(CC1)CN(S(=O)(=O)c1ccc(F)cc1)CCO2 (single isomer, unassigned; ent-1) [Example 20] | 0.061
* O=C(O[C@H](CO)C(F)(F)F)N1CCC2(CC1)CN(S(=O)(=O)c1cccc(Cl)c1)CCO2 [Example 83] | 0.019
* CN(C1COC2(CCN(C(=O)O[C@H](CO)C(F)(F)F)CC2)C1)S(=O)(=O)c1cccc(F)c1 (single isomer, unassigned) [Example 108] | 0.051
* O=C(O[C@H](CO)C(F)(F)F)N1CCC2(CC1)CN(S(=O)(=O)c1ccccc1)CCO2 [Example 7] | 0.029
* O=C(O[C@H](CO)C(F)(F)F)N1CCC2(CC1)C[C@@H](NS(=O)(=O)c1ccccc1)CO2 [Example 9] | 0.04
* CN([C@H]1COC2(CCN(C(=O)O[C@H](CO)C(F)(F)F)CC2)C1)S(=O)(=O)CC(F)(F)F [Example 137] | 0.126
